Target chain: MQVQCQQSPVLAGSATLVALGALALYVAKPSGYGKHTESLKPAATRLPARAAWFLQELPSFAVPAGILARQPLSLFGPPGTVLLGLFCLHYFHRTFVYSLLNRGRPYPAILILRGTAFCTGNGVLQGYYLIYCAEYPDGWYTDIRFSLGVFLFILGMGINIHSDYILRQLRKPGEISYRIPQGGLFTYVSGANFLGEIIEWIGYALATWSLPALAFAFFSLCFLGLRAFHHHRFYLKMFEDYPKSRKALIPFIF
outcome.measure: pIC50
pIC50 field: float, defined as -log10 of concentration (mol/L).

Prompt: Fill blank: measured pIC50 of the compound CC(C)(C)NC(=O)[C@H]1CC[C@H]2[C@@H]3CC[C@H]4NC(=O)C=C[C@]4(C)[C@H]3CC[C@]12C is ____.
Response: 8.72
